conditions: in 1,4-dioxane, 293.15 K
property_label: solubility (mole fraction)
Answer field: number only, no words.

// lookup solubility (mole fraction) for Nc1nnn[nH]1 0.0217

====

conditions: in n-butanol, 298.15 K
property_label: solubility (mole fraction)
Answer with a number only.

I would be grateful if you could share the reported solubility (mole fraction) for Nc1nnn[nH]1 . 0.00066

====

details: in n-propanol, 313.15 K
property_label: solubility (mole fraction)
Output: the number by itself.

Could you tell me which solubility (mole fraction) is on file for Nc1nnn[nH]1 ? 0.00129

====

conditions: in DMF, 313.15 K
property_label: solubility (mole fraction)
Hey, just send me the number, nothing else.

Which solubility (mole fraction) value belongs to Nc1nnn[nH]1 ? 0.0628

====

conditions: in methanol, 308.15 K
property_label: solubility (mole fraction)

Query (molecule): Nc1nnn[nH]1 ; field requested: solubility (mole fraction) 0.00106

====

conditions: in 1,4-dioxane, 288.15 K
property_label: solubility (mole fraction)
// return just the number, without any unit appended

// query solubility (mole fraction) value for entry Nc1nnn[nH]1 0.0178

====

conditions: in ethyl acetate, 313.15 K
property_label: solubility (mole fraction)
Respond using a number only.

Name the recorded solubility (mole fraction) for Nc1nnn[nH]1 . 0.00107

====

settings: in 1,4-dioxane, 318.15 K
property_label: solubility (mole fraction)
Reply with the value as a number alone.

Any idea what solubility (mole fraction) was measured for Nc1nnn[nH]1 ? 0.0551

====

details: in isopropanol, 303.15 K
property_label: solubility (mole fraction)

Given the compound Nc1nnn[nH]1 , what is its reported solubility (mole fraction)? 0.00116

====

conditions: in toluene, 298.15 K
property_label: solubility (mole fraction)
The reply should be a number, written without any unit.

Request the reported solubility (mole fraction) associated with Nc1nnn[nH]1 0.00201

====

conditions: in acetone, 293.15 K
property_label: solubility (mole fraction)
# respond with the number and nothing more

Data request, read-out solubility (mole fraction), for Nc1nnn[nH]1 0.000916

====

conditions: in acetonitrile, 313.15 K
property_label: solubility (mole fraction)
In your answer, state the number alone without any accompanying words.

Return reported solubility (mole fraction); argument: Nc1nnn[nH]1 0.000329

====

details: in ethanol, 303.15 K
property_label: solubility (mole fraction)

# input compound: Nc1nnn[nH]1 ; wanted: its solubility (mole fraction) 0.00121

====

conditions: in toluene, 288.15 K
property_label: solubility (mole fraction)
Returns: the value as a bare number; no unit string appended.

Would you kindly share the measured solubility (mole fraction) for Nc1nnn[nH]1 ? 0.00156

====

conditions: in ethanol, 293.15 K
property_label: solubility (mole fraction)
// keep it numeric: no unit symbol after the value

// returns reported solubility (mole fraction) for input Nc1nnn[nH]1 0.00099

====

settings: in DMF, 298.15 K
property_label: solubility (mole fraction)

Would you kindly share the measured solubility (mole fraction) for Nc1nnn[nH]1 ? 0.0437

====

settings: in isopropanol, 293.15 K
property_label: solubility (mole fraction)
API note: the answer field is a bare number with no unit suffix.

Entry Nc1nnn[nH]1 has what solubility (mole fraction)? 0.000946

====

conditions: in ethyl acetate, 308.15 K
property_label: solubility (mole fraction)
Give the figure by itself; no unit, no explanation.

Record request: solubility (mole fraction) value, item Nc1nnn[nH]1 0.000943

====

settings: in ethanol, 313.15 K
property_label: solubility (mole fraction)
// no unit string in output, number only

Reported solubility (mole fraction) for Nc1nnn[nH]1 : what is it? 0.00145

Where do these numbers come from? They come from BigSolDB 2.1.
